- experimental_target: glucocorticoid receptor (Homo sapiens (Human))
- Sequence (P04150 whole entry): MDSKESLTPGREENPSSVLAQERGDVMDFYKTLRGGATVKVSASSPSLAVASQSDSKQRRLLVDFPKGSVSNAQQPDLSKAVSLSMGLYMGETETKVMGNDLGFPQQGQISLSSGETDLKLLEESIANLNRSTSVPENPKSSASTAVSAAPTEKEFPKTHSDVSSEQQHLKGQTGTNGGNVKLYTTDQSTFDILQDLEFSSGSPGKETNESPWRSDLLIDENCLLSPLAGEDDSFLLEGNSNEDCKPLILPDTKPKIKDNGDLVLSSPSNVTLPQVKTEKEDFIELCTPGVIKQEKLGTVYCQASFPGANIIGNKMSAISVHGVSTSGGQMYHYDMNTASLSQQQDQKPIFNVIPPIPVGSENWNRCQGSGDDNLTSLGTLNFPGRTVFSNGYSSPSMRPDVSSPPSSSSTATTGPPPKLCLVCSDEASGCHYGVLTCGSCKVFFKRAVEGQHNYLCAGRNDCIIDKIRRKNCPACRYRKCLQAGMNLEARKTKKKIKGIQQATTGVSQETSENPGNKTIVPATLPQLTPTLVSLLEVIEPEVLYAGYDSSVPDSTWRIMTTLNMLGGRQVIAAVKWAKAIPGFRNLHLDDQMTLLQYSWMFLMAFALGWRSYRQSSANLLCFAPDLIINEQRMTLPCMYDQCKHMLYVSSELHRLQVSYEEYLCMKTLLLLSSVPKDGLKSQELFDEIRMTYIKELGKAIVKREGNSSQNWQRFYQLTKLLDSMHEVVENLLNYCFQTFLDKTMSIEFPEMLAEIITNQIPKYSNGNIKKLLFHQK
- experiment_description: HepG2 TAT assay: inhibition of dexamethasone-induced tyrosine aminotransferase (TAT) activity
- conditions_used: HepG2 cells, challenge of 100 nM dexamethasone, 18-24 hr; IC50 converted to Ki by Cheng and Prusoff equation
parameter: Ki (nM)

Cc1cc2c(cnn2-c2ccc(F)cc2)cc1[C@@]12CN(C(=O)c3cccc(C(F)F)c3)C[C@@H]1[C@H]2c1ccccc1 (stereo in doubt) ... 25
Cc1cc2c(cnn2-c2ccc(F)cc2)cc1[C@@]12CN(C(=O)c3ccn(C)n3)C[C@@H]1[C@H]2c1ccccc1 (stereo in doubt) ... 16
CCn1cc(S(=O)(=O)N2C[C@@H]3C[C@@](OC)(c4ccccc4)C[C@]3(c3cc4cnn(-c5ccc(F)cc5)c4cc3C)C2)cn1 ... 37

[P] COC1(c2nccs2)CC2CN(S(=O)(=O)c3cnn(C)c3)CC2(c2cc3cnn(-c4ccc(F)cc4)c3cc2C)C1 (centres unmarked)
[Q] COC1(c2ccccc2)CC2CN(S(=O)(=O)C3(C)CC3)CC2(c2cc3cnn(-c4ccc(F)cc4)c3cc2C)C1 (centres unmarked)
[R] Cc1cc2c(cnn2-c2ccc(F)cc2)cc1[C@@]12CN(C(=O)C3CCC3)C[C@@H]1[C@H]2c1ccccc1 (stereo in doubt)
[S] Cc1cc2c(cnn2-c2ccc(F)cc2)cc1[C@@]12CN(C(=O)c3ccccc3F)C[C@@H]1[C@H]2c1ccccc1 (single isomer, unassigned)
[T] Cc1cc2c(cnn2-c2ccc(F)cc2)cc1[C@@]12CN(S(=O)(=O)c3cnn(C)n3)C[C@@H]1[C@@H]2CO (stereo in doubt)
query: Place the items in sequence of falling Ki. Use the labels to give the ranking in the order requested.
result: T, P, R, Q, S

[P] Cc1cc2c(cnn2-c2ccc(F)cc2)cc1[C@@]12CN(C(=O)c3ccc(C(F)(F)F)cn3)C[C@@H]1[C@H]2c1ccccc1 (stereo in doubt)
[Q] Cc1cc2c(cnn2-c2ccc(F)cc2)cc1C12CC(Oc3ccccc3)CC1CN(S(C)(=O)=O)C2 (centres unmarked) [Example 36]
[R] Cc1cc2c(cnn2-c2ccc(F)cc2)cc1C12CN(S(=O)(=O)c3cnn(C)c3)CC1CC(F)(c1ccccc1)C2 (centres unmarked)
query: List the 3 entries from lowest Ki to highest Ki value. Use the labels to give the ranking in the order requested.
result: P, Q, R
(P: 39 nM, Q: 72 nM, R: 540 nM)
